# System: MILI (PIWIL2) piRISC loaded with L1MC piRNA (26 nt);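 note: 1 nM active piRISC with 0.1 nM target library at 33 °C single turnover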
# procedure-details: pre-steady-state target cleavage rate (min^-1); guide: L1MC piRNA 5'p-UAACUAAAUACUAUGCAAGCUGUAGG; MIWI and MILI are mouse PIWI proteins and EfPiwi is from a freshwater sponge; tags in brackets are library labels; higher = faster piRNA-guided slicing of the target
# details: auxiliary factor: 500 nM mouse GTSF1
Please note: yes applies when pre-steady-state target cleavage rate is 0.06 or greater, and no applies otherwise.

Before answering, review these 6 worked examples.
| item-sequence | experimental-system | category-label |
| --- | --- | --- |
| UCCUGGAUGACCUUGCAUAGUAUUUAGUUA | MILI (PIWIL2) piRISC loaded with L1MC piRNA (26 nt) | yes |
| UCCUGGAUCAGCUUGCAUAGUAUUUAGAUA | MILI (PIWIL2) piRISC loaded with L1MC piRNA (26 nt) | yes |
| UCCUGGUACAGGUUGCAUAGUAUAUAGUUA | MILI (PIWIL2) piRISC loaded with L1MC piRNA (26 nt) | yes |
| UCCUCCUACAGCUUGCAUUCUAUUUAGUUA | MILI (PIWIL2) piRISC loaded with L1MC piRNA (26 nt) | no |
| UCCUCCUUCAGCUUGCAUAGUAUUUACUUA | MILI (PIWIL2) piRISC loaded with L1MC piRNA (26 nt) | yes |
| UCCUGGAUGUCGAUAGCAUAGUAUUUAGUUA | MILI (PIWIL2) piRISC loaded with L1MC piRNA (26 nt) | no |

Has UCCUGGUACAGCUUGCAUAGUAUUUGUUA a recorded pre-steady-state target cleavage rate greater than or equal to 0.06?
yes

Has UCCUGGUACAGCUUGCAUAGAUAUUUAGUUA a recorded pre-steady-state target cleavage rate greater than or equal to 0.06?
no

Has UCCUCGCUACAGCUUGCAUAGUAUUUAGUUA a recorded pre-steady-state target cleavage rate greater than or equal to 0.06?
yes

Has UCCUGCUACAGCUUGCAUAGUAUUUCGUUA a recorded pre-steady-state target cleavage rate greater than or equal to 0.06?
yes

Has UCCUGGAUCAGCUUGCAUAGUAUUUUCUUA a recorded pre-steady-state target cleavage rate greater than or equal to 0.06?
no
